Reference for the values: patent US20240132578A1

- Study system: HIV-1 Env of isolate MGRM-C-012 (subtype C) (HIV-1)
- Measurement protocol: cell-based or functional assay
# IC50 (µg/mL), pseudovirus neutralization values compiled below
Measure: IC50 (µg/mL), pseudovirus neutralization

>>> recorded_result("PGT-127 (antibody, V domains shown) VH: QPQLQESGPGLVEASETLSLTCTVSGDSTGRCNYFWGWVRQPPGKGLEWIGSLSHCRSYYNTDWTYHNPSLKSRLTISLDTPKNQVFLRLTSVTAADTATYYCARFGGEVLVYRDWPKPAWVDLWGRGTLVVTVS VL: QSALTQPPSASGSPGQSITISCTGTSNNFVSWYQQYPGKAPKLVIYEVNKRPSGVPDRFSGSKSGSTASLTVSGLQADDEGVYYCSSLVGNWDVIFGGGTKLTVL")
1.07
>>> recorded_result("PGT-123 (antibody, V domains shown) VH: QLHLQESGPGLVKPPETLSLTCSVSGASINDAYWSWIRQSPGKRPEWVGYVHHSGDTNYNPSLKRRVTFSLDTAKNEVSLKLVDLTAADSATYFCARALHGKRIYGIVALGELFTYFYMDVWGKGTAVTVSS VL: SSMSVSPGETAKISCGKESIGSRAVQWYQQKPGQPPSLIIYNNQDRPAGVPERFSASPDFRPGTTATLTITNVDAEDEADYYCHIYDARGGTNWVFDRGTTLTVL")
0.605
>>> recorded_result("PGT-126 (antibody, V domains shown) VH: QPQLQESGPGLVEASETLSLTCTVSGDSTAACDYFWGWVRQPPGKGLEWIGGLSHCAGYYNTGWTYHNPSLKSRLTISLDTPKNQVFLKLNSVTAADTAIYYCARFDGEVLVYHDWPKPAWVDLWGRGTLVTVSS VL: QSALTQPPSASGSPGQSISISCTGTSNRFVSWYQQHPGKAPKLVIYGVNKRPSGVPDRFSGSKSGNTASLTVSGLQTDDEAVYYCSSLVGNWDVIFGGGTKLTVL")
0.111
